Source: ChEMBL document CHEMBL1201862

- assayed_target: Large T antigen (Simian virus 40);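 also: Confirmatory-stage PubChem screen for compounds that inhibit SV40 T antigen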
- Sequence (P03070 whole entry): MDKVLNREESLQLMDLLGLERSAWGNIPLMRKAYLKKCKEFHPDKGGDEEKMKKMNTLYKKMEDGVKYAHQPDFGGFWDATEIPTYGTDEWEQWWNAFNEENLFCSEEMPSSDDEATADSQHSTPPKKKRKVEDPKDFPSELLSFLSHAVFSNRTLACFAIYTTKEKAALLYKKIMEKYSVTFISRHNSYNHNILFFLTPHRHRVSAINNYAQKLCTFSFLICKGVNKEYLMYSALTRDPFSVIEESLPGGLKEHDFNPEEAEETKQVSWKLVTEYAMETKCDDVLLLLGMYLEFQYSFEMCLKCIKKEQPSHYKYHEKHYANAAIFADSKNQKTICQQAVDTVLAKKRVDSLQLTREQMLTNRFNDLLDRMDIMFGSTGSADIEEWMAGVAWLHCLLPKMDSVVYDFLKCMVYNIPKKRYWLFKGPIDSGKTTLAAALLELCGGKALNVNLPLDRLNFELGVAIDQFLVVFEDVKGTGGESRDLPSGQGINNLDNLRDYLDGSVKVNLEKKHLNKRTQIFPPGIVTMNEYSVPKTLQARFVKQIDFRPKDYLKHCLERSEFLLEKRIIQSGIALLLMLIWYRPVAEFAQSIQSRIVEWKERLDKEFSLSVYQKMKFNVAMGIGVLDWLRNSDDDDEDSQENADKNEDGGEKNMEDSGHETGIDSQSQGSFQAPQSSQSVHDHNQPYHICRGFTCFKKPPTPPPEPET
- Format: functional, Betapolyomavirus macacae
The source made the active and inactive calls.
metric: IC50

COc1cc(/C=N\NC(=O)CC(=O)NCCc2ccccc2)ccc1O ... 7.57 µM (active)

Moving on to the next compound.
The compound identified as CN=C(S)Nc1ccc(Nc2ccccc2)cc1 registered its IC50 at 12.3 µM (active)

====

Read-out record for Cytochrome P450 3A4 (Homo sapiens): AC50
metric: AC50

CCC(=O)O[C@H]1CC[C@H]2[C@@H]3CCC4=CC(=O)CC[C@]4(C)[C@H]3CC[C@]12C [TESTOSTERONE PROPIONATE] ... inconclusive
C=CCN1CCc2c(cc(O)c(O)c2Br)[C@H](c2ccccc2)C1 ... inconclusive
CN1CCN(c2ncc3nc(CCc4ccccc4)c(=O)n(C)c3n2)CC1 ... inconclusive
C/C(Nc1c(C)n(C)n(-c2ccccc2)c1=O)=C1/C(=O)NC(=O)N(Cc2ccccc2)C1=O ... inconclusive
